Cited source: paper PMC10601815

Target: LdtMt2 (Mycobacterium tuberculosis)
Sequence (I6Y9J2 56-408): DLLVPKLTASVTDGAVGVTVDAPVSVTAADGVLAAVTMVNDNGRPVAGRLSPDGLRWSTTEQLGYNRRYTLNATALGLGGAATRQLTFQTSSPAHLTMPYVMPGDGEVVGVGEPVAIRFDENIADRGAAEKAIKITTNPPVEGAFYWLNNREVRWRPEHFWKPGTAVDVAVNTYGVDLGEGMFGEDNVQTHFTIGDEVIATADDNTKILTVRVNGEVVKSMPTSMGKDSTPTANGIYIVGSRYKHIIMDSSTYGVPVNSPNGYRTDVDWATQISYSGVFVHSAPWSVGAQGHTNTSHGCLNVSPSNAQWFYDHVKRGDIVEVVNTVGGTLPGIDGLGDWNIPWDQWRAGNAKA
Assay: biochemical

# compound, kinact/KI LdtMt2
rows = [
    ("O=C1C2(CCCC13OC3c1ccccc1)OC2c1ccccc1 (stereo not drawn)", "< 10.0 M⁻¹ s⁻¹"),
    ("Cc1cccc(C)c1C1OC1C(=O)C1OC1c1c(C)cccc1C (mixture of isomers)", "< 10.0 M⁻¹ s⁻¹"),
    ("O=C(C1OC1c1ccc(OC(F)(F)F)cc1)C1OC1c1ccc(OC(F)(F)F)cc1 (stereo not drawn)", "< 10.0 M⁻¹ s⁻¹"),
]
